Reported target mRNA inhibition values for a set of sequences
Biological target: DGAT2
Settings: ASO, HepG2, 0.12 µM
After the bases stand the sugars from the 5' end (letter, count) and the backbone: PS all phosphorothioate, else s phosphorothioate and o phosphodiester by linkage. Methylation of C is not given here. e = 2'-O-(2-methoxyethyl) (MOE); d = 2'-deoxy (DNA)
I only need the number, in %, no unit after it.

GACAGGACCCACTGGAGCAC (sugars e2 d13 e5, PS) | 73
GTCCTGCAGTTTCAGGACTA (sugars e5 d10 e5, PS) | 54
GCCAGGCCCCTTCTGAAGAG (sugars e5 d10 e5, PS) | 36

Next item in the queue.
Look up target mRNA inhibition for this sequence: CTTGCTCACTTCTGTGGCCT (sugars e5 d10 e5, PS)
48

====

Target: HTRA1
Conditions: ASO, U251, 5 µM
After the bases stand the sugars from the 5' end (letter, count) and the backbone: PS all phosphorothioate, else s phosphorothioate and o phosphodiester by linkage. Methylation of C is not given here. l = locked nucleic acid (LNA); d = 2'-deoxy (DNA)
target mRNA inhibition reference
Return type: number; implicit unit %.

Solved entries (count: 6):
GTATCGACTGCATTAGTT (sugars l4 d12 l2, PS) | 82
TGTATCGACTGCATTAGT (sugars l3 d13 l2, PS) | 78
GCAATGTGTAAGAAGT (sugars l3 d10 l3, PS) | 85
TTGTATCGACTGCATT (sugars l3 d9 l4, PS) | 93
ACGCATTGTATCGACT (sugars l3 d10 l3, PS) | 95
TCTTCTATCTACGCATT (sugars l3 d10 l4, PS) | 83

Give the measured target mRNA inhibition of AGAAGTACTTTAATAGC (sugars l4 d9 l4, PS) .
78

Data request, read-out target mRNA inhibition, for TATCGACTGCATTAGT (sugars l4 d8 l4, PS)
81

Any idea what target mRNA inhibition was measured for ATCGACTGCATTAGTT (sugars l4 d8 l4, PS) ?
56

target mRNA inhibition lookup needed for TTGTATCGACTGCATTAG (sugars l3 d12 l3, PS) , thanks.
77

Fill blank: measured target mRNA inhibition of the sequence AAGTACTTTAATAGCTCA (sugars l4 d11 l3, PS) is ____.
72

====

Target: IRF5
Details: ASO, KARPAS-229, 4 µM
After the bases stand the sugars from the 5' end (letter, count) and the backbone: PS all phosphorothioate, else s phosphorothioate and o phosphodiester by linkage. Methylation of C is not given here. e = 2'-O-(2-methoxyethyl) (MOE); k = constrained ethyl (cEt); d = 2'-deoxy (DNA)
Recorded Endpoint: target mRNA inhibition (%)
Supply the numeric figure in %, leaving out any unit text.

CGGTCTTTGAGGTCTG (sugars kkkddddddddkekek, PS) | 56
GAGGAAGTGAGTCTCA (sugars k3 d10 k3, PS) | 0
GGTTCTTGGACTCTCA (sugars kkkddddddddkekek, PS) | 25
TATTTCTGCTCCAGGT (sugars kkkddddddddkekek, PS) | 24
GATGGTGTTATCTCCG (sugars k2 d9 e3 k2, PS) | 0
ATGCAACATCCATCAA (sugars k3 d10 k3, PS) | 0
GTTATCTCCGTCCTGG (sugars kkddddddddddkeke, PS) | 0
TCACCACTGTGTACCC (sugars k2 d8 e4 k2, PS) | 0
CCACTGTGTACCCCAT (sugars k2 d9 e3 k2, PS) | 64
CTCTAAACCATTCTAT (sugars k3 d10 k3, PS) | 0

Shifting focus to the sequence that follows.
What does the data say about its target mRNA inhibition? Entry: CGGTCTTTGAGGTCTG (sugars k3 d10 k3, PS)
32
